The reported numbers originate from PubChem BioAssay AID1619.

Hi there, I'd appreciate the recorded inhibition for every entry that follows.
- EXPERIMENTAL_TARGET: Leucine aminopeptidase (Plasmodium falciparum (isolate 3D7))
- PROCEDURE_TEXT: P. falciparum M17LAP inhibitors, primary screen, biochemical, fluorogenic H-Leu-NHMec substrate, 1536-well (AID 1619);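 also: plate controls were full reaction with DMSO carrier for no effect and no enzyme background for full effect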
- CONDITION: recombinant M17LAP, H-Leu-NHMec fluorogenic kinetic assay; at 30 µM; active compounds read high
Out of some 220,000 compounds screened, about 830 (0.38%) were called active. The list is a sample of the results. Measured potencies and affinities stand elsewhere.
Please give a number only; it is taken to be in %.

Lookup: inhibition / Leucine aminopeptidase (Plasmodium falciparum (isolate 3D7)) / CC(/C=C/c1ccc2c(c1)OCO2)=N/NC(=O)c1cccnc1
17.2

Give the reported inhibition for c1ccc(-c2ccccc2OCCCN2CCCCCC2)cc1 (system: Leucine aminopeptidase (Plasmodium falciparum (isolate 3D7))).
-1.36

Look up inhibition with Leucine aminopeptidase (Plasmodium falciparum (isolate 3D7)) for this molecule: COc1ccc(C2NC(=S)N3C(c4ccc(OC)cc4)NC(=S)N23)cc1 (configuration not stated)
34.8

// map COc1ccc(NC(=S)N/C(=N/S(=O)(=O)c2ccc(C)cc2)c2ccccc2)cc1 to recorded inhibition (system: Leucine aminopeptidase (Plasmodium falciparum (isolate 3D7)))
-2.37

Enter reported inhibition observed with Leucine aminopeptidase (Plasmodium falciparum (isolate 3D7)) for CCNC(=S)Nc1ccc2cn[nH]c2c1
14.6

# returns recorded inhibition (system: Leucine aminopeptidase (Plasmodium falciparum (isolate 3D7))) for COc1ccc(-n2nc(C(=O)N3CCN(Cc4ccc5c(c4)OCO5)CC3)c3ccccc3c2=O)cc1
6.93

Request body: readout inhibition, system Leucine aminopeptidase (Plasmodium falciparum (isolate 3D7)), query COc1ccc2c(c1OC)C(=O)OC2Nc1nc(-c2cc3cc(Br)ccc3oc2=O)cs1 (configuration not stated) . Return the value.
-3.55

Param readout = inhibition; param system = Leucine aminopeptidase (Plasmodium falciparum (isolate 3D7)); param query = COc1ccc(-c2noc(CN(C)Cc3ccc(C)o3)n2)cc1 ; response: value
1.39

Form entry - test system: Leucine aminopeptidase (Plasmodium falciparum (isolate 3D7)); read-out: inhibition; molecule: CCc1ccc(NC(=S)Nc2ccc3cn[nH]c3c2)cc1
11.2

Given the entry COc1ccc(C(=O)CNc2ccc(C)cc2C)cc1 , what inhibition was observed with Leucine aminopeptidase (Plasmodium falciparum (isolate 3D7))?
-4.8

# get_value(readout= inhibition, system= Leucine aminopeptidase (Plasmodium falciparum (isolate 3D7))) for COc1ccccc1N(CC(=O)Nc1cc(C)on1)S(=O)(=O)c1ccc(Cl)cc1
-0.47

Notebook: pull reported inhibition for Leucine aminopeptidase (Plasmodium falciparum (isolate 3D7)), entry COc1cccc(-n2nc3c(=S)[nH]nc(C)c3c2C)c1
-3.52

inhibition of CCN(CC)S(=O)(=O)c1ccc(C(=O)NCCN2C(=O)S/C(=C\c3cccnc3)C2=O)cc1 on Leucine aminopeptidase (Plasmodium falciparum (isolate 3D7))?
-4.15

For the record OC1NC(=S)N(c2ccccc2)C1O (configuration not stated) , what value of inhibition is listed for Leucine aminopeptidase (Plasmodium falciparum (isolate 3D7))?
8.92

Item: C[C@H](NC(=O)OCc1ccccc1)C(=O)NNC(=O)[C@H](Cc1ccccc1)NC(=O)OC(C)(C)C Test system: Leucine aminopeptidase (Plasmodium falciparum (isolate 3D7)) Read-out: inhibition Value: ?
12.1

Recorded inhibition for O=c1cc(C(Cl)(Cl)Cl)oc2c1ccc1ccccc12 with Leucine aminopeptidase (Plasmodium falciparum (isolate 3D7)), please?
-3.47

Lab note: need inhibition for Cc1cccc(C(=O)N2CCCCCC2)c1[N+](=O)[O-] on Leucine aminopeptidase (Plasmodium falciparum (isolate 3D7)), anyone have it?
-0.16

Request: inhibition, test system Leucine aminopeptidase (Plasmodium falciparum (isolate 3D7)), entry COc1cccc(CNc2ccc([N+](=O)[O-])cc2C)c1
6.82

Lookup: inhibition / Leucine aminopeptidase (Plasmodium falciparum (isolate 3D7)) / O=C(NCc1ccccc1C(F)(F)F)C1CC(c2ccc(C(F)(F)F)cc2)=NO1 (configuration not stated)
-1.15

Param readout = inhibition; param system = Leucine aminopeptidase (Plasmodium falciparum (isolate 3D7)); param query = CCOc1ccccc1NC(=O)NC1(C(=O)N2CCN3CCCC3C2)CCCCC1 (configuration not stated) ; response: value
20.5

What measured inhibition is associated with CSc1nnc(-c2sc3cc(C(F)(F)F)cnc3c2-c2cccnc2)n1C on Leucine aminopeptidase (Plasmodium falciparum (isolate 3D7))?
2.54

Identify the measured inhibition of COc1ccccc1N1CCN(c2ccc(N3C(=O)CCC3=O)cc2[N+](=O)[O-])CC1 for Leucine aminopeptidase (Plasmodium falciparum (isolate 3D7)).
-4.52
